Origin of values: patent US20250027068

Molecular target: pooled human IgG (human IgG1,2,3 and 4)
Provide the recorded Enzyme Activity Endpoint Assay (purified): Fc for the entries that follow.
One number for each entry, in ng/µL.

[[record]]
protein = "PRT-326 (protein) MTITSVWTKGVTPPTPEDFRENNEDVLHAPYVANQGWYDITKTFDGKDNLLCGAATAGNMLHWWFDQNKEEIERYLKKHPEKQKIIFGNQELFDVKAAIDTKDSQTNSKLFDYFRDKAFPNLSARQLGVMPDLVLDMFINGYYLNLGKTQSTDVNRPYQDKDKRGGIFDAVFTRGDQTTLLTARHDLKNKGLNEISDLIKQELTEGKALALSHTYANVRINHVINLWGADFDAEGELIAIYVTDSDANPSIGMKKYFVGRNANGKVAISAKKIEGDNIGAQVLGLFTLSTGQDQWQKLS"
unitabbreviation = "ng/µL"
reported = 429


# context switch: different protein, same Enzyme Activity Endpoint Assay (purified): Fc
Return reported Enzyme Activity Endpoint Assay (purified): Fc. Input protein: PRT-359 (protein) MSQTEDSESLQRLRDIEDFQAEKKDQNVVYTKWLDGVDVKDHDFRKIVDGNIAYYATPLLNGRGLYDINKDFNRDSDKCAAAVAANMFHYWLDRNRDNVDRFLRQNPEKHGIIELPDGQLKLSDFLNTYESDDGYRDKSKLFDFISENFNGPVWTDKLLDNYINGYAYNYKYGRTIEDPTKNTSKINFFKEVFNEKILTNNHSIRNQNELSVLLSEALYTGKAIGLSYGPAGLRHSLGHIISVWGADLDADGNVVAIYVTDSDDKKLTIGDERVGLKRYKISTDDEGRLRLTAYEETHNTGGQVRGLWTLDTGKQAWADYFDKTEQTGTDQAEQ
340
